The reported numbers originate from patent US20090203708A1.

# TARGET_OF_ASSAY: 5-HT2c (human recombinant receptor, CHO-K1) (Homo sapiens)
# Sequence (P28335 33-458): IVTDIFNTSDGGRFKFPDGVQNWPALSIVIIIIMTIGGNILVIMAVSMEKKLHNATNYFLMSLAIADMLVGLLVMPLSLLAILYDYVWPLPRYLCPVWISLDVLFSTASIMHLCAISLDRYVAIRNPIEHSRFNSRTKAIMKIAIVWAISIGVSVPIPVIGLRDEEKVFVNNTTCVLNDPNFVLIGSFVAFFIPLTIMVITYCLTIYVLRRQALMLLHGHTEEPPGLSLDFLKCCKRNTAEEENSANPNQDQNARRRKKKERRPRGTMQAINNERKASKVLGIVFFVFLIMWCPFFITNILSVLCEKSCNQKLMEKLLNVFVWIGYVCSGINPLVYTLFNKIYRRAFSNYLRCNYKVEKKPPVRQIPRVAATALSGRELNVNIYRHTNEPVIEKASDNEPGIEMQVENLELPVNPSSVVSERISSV
# EXPERIMENT_DESCRIPTION: Radioligand binding assay, 5-HT2c
pIC50: −log10 of the molar value.
The threshold is inclusive: pIC50 of exactly 6 counts as Criterion met; values below receive Criterion not met.

{"SMILES_STRUCTURE": "CN1CCN(c2cc(Cl)cc3c2c(=O)n(Cc2ccccc2)c(=O)n3Cc2ccccc2)CC1", "TARGET_OF_ASSAY": "5-HT2c (human recombinant receptor, CHO-K1) (Homo sapiens)", "CLASSIFICATION": "Criterion not met"}
{"SMILES_STRUCTURE": "CN1CCN(c2cc(Cl)cc3c2c(=O)n(Cc2ccccc2Cl)c(=O)n3Cc2ccccc2)CC1", "TARGET_OF_ASSAY": "5-HT2c (human recombinant receptor, CHO-K1) (Homo sapiens)", "CLASSIFICATION": "Criterion met"}
{"SMILES_STRUCTURE": "C[C@H](c1ccccc1)n1c(=O)c2c(N3CCN(C)CC3)cc(Cl)cc2n(Cc2ccccc2)c1=O", "TARGET_OF_ASSAY": "5-HT2c (human recombinant receptor, CHO-K1) (Homo sapiens)", "CLASSIFICATION": "Criterion met"}
{"SMILES_STRUCTURE": "CN1CCN(c2cc(Cl)cc3c2c(=O)n(Cc2ccc(Cl)cc2)c(=O)n3Cc2ccccc2)CC1", "TARGET_OF_ASSAY": "5-HT2c (human recombinant receptor, CHO-K1) (Homo sapiens)", "CLASSIFICATION": "Criterion met"}
{"SMILES_STRUCTURE": "CN1CCN(c2cc(Cl)cc3c2c(=O)n(Cc2cccc([N+](=O)[O-])c2)c(=O)n3Cc2ccccc2)CC1", "TARGET_OF_ASSAY": "5-HT2c (human recombinant receptor, CHO-K1) (Homo sapiens)", "CLASSIFICATION": "Criterion not met"}
{"SMILES_STRUCTURE": "Cc1cc(C)cc(CCCn2c(=O)c3c(N4CCN(C)CC4)cc(Cl)cc3n(Cc3ccccc3)c2=O)c1", "TARGET_OF_ASSAY": "5-HT2c (human recombinant receptor, CHO-K1) (Homo sapiens)", "CLASSIFICATION": "Criterion not met"}
{"SMILES_STRUCTURE": "CN1CCN(c2cc(Br)cc3c2c(=O)n(Cc2ccccc2)c(=O)n3Cc2ccccc2)CC1", "TARGET_OF_ASSAY": "5-HT2c (human recombinant receptor, CHO-K1) (Homo sapiens)", "CLASSIFICATION": "Criterion met"}
{"SMILES_STRUCTURE": "C[C@@H](c1ccccc1)n1c(=O)c2c(N3CCNCC3)cc(Cl)cc2n(Cc2ccccc2)c1=O", "TARGET_OF_ASSAY": "5-HT2c (human recombinant receptor, CHO-K1) (Homo sapiens)", "CLASSIFICATION": "Criterion met"}
{"SMILES_STRUCTURE": "Cc1ccc(Cn2c(=O)c3c(N4CCN(C)CC4)cc(Cl)cc3n(Cc3ccccc3)c2=O)cc1", "TARGET_OF_ASSAY": "5-HT2c (human recombinant receptor, CHO-K1) (Homo sapiens)", "CLASSIFICATION": "Criterion met"}

====

# TARGET_OF_ASSAY: D2 (hD2L receptor) (Homo sapiens)
# Sequence (P14416 whole entry): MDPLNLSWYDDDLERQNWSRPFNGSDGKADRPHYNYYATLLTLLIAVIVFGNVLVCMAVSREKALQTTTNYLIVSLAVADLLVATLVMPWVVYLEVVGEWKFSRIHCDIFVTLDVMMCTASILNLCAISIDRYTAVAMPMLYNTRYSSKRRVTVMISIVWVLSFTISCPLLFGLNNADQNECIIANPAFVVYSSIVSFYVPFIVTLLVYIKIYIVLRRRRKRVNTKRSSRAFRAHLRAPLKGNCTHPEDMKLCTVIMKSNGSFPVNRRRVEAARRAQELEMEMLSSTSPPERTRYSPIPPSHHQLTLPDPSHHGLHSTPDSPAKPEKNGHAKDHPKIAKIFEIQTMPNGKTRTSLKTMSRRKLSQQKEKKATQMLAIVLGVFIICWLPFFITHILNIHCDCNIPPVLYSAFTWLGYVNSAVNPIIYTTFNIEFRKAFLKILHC
# EXPERIMENT_DESCRIPTION: Radioligand binding assay, dopamine D2
# CONDITIONS: [3H] spiperone 1 nM; read-out: Binding affinity IC50 D2

{"SMILES_STRUCTURE": "O=c1c2c(N3CCNCC3)cc(Cl)cc2n(Cc2ccccc2)c(=O)n1CCCc1ccccc1", "IC50": "2.72 µM"}
{"SMILES_STRUCTURE": "CN1CCN(c2cc(Cl)cc3c2c(=O)n(Cc2ccccc2Cl)c(=O)n3Cc2ccccc2)CC1", "IC50": "> 10 µM"}
{"SMILES_STRUCTURE": "Cc1ccc(Cn2c(=O)c3c(N4CCN(C)CC4)cc(Cl)cc3n(Cc3ccccc3)c2=O)o1", "IC50": "> 10 µM"}
{"SMILES_STRUCTURE": "Cc1ccc(Cn2c(=O)c3c(N4CCN(C)CC4)cc(Cl)cc3n(Cc3ccccc3)c2=O)cc1", "IC50": "> 10 µM"}
{"SMILES_STRUCTURE": "O=c1c2c(N3CCNCC3)cc(Cl)cc2n(Cc2ccccc2)c(=O)n1CCc1ccccc1", "IC50": "7.44 µM"}
{"SMILES_STRUCTURE": "C[C@@H](c1ccccc1)n1c(=O)c2c(N3CCN(C)CC3)cc(Cl)cc2n(Cc2ccccc2)c1=O", "IC50": "0.744 µM"}
{"SMILES_STRUCTURE": "CN1CCN(c2cc(Cl)cc3c2c(=O)n(CCCc2ccccc2)c(=O)n3Cc2ccccc2)CC1", "IC50": "5.67 µM"}
{"SMILES_STRUCTURE": "O=c1c2c(N3CCNCC3)cc(Cl)cc2n(Cc2ccccc2)c(=O)n1Cc1ccccc1F", "IC50": "> 10 µM"}
{"SMILES_STRUCTURE": "CN1CCN(c2cc(Cl)cc3c2c(=O)n(Cc2cccc(Cl)c2)c(=O)n3Cc2ccccc2)CC1", "IC50": "7.32 µM"}
{"SMILES_STRUCTURE": "CCCCCCCCn1c(=O)c2c(N3CCN(C)CC3)cc(Cl)cc2n(Cc2ccccc2)c1=O", "IC50": "2.76 µM"}
{"SMILES_STRUCTURE": "CN1CCN(c2cc(Cl)cc3c2c(=O)n(Cc2ccccc2F)c(=O)n3Cc2ccccc2)CC1", "IC50": "> 10 µM"}
{"SMILES_STRUCTURE": "CN1CCN(c2cc(Br)cc3c2c(=O)n(Cc2ccccc2Cl)c(=O)n3Cc2ccccc2)CC1", "IC50": "> 10 µM"}
{"SMILES_STRUCTURE": "CN1CCN(c2cc(Cl)cc3c2c(=O)n(CCc2ccccc2)c(=O)n3Cc2ccccc2)CC1", "IC50": "2.5 µM"}
{"SMILES_STRUCTURE": "CCCn1c(=O)c2c(N3CCN(C)CC3)cc(Cl)cc2n(Cc2ccccc2)c1=O", "IC50": "> 10 µM"}
{"SMILES_STRUCTURE": "CN1CCN(c2cc(Cl)cc3c2c(=O)n(Cc2ccccc2[N+](=O)[O-])c(=O)n3Cc2ccccc2)CC1", "IC50": "> 10 µM"}
{"SMILES_STRUCTURE": "CN1CCN(c2cc(Cl)cc3c2c(=O)n(Cc2ccc(Cl)cc2)c(=O)n3Cc2ccccc2)CC1", "IC50": "7.74 µM"}
{"SMILES_STRUCTURE": "CN1CCN(c2cc(Cl)cc3c2c(=O)n(Cc2cccc(F)c2)c(=O)n3Cc2ccccc2)CC1", "IC50": "> 10 µM"}
{"SMILES_STRUCTURE": "C[C@@H](c1ccccc1)n1c(=O)c2c(N3CCNCC3)cc(Cl)cc2n(Cc2ccccc2)c1=O", "IC50": "> 10 µM"}
{"SMILES_STRUCTURE": "CN1CCN(c2cc(Cl)cc3c2c(=O)n(Cc2ccc(F)cc2)c(=O)n3Cc2ccccc2)CC1", "IC50": "> 10 µM"}
{"SMILES_STRUCTURE": "CN1CCN(c2cc(Cl)cc3c2c(=O)n(Cc2ccccc2)c(=O)n3Cc2ccccc2)CC1", "IC50": "4.35 µM"}
{"SMILES_STRUCTURE": "Cc1ccccc1Cn1c(=O)c2c(N3CCN(C)CC3)cc(Cl)cc2n(Cc2ccccc2)c1=O", "IC50": "> 10 µM"}
{"SMILES_STRUCTURE": "CN1CCN(c2cc(Cl)cc3c2c(=O)n(Cc2ccccc2Br)c(=O)n3Cc2ccccc2)CC1", "IC50": "3.32 µM"}
{"SMILES_STRUCTURE": "COc1ccccc1Cn1c(=O)c2c(N3CCN(C)CC3)cc(Cl)cc2n(Cc2ccccc2)c1=O", "IC50": "> 10 µM"}
{"SMILES_STRUCTURE": "Cc1cc(C)cc(CCCn2c(=O)c3c(N4CCN(C)CC4)cc(Cl)cc3n(Cc3ccccc3)c2=O)c1", "IC50": "0.987 µM"}
{"SMILES_STRUCTURE": "CN1CCN(c2cc(Cl)cc3c2c(=O)n(Cc2cccc(I)c2)c(=O)n3Cc2ccccc2)CC1", "IC50": "> 10 µM"}
{"SMILES_STRUCTURE": "O=c1c2c(N3CCNCC3)cc(Cl)cc2n(Cc2ccccc2)c(=O)n1Cc1ccccc1Cl", "IC50": "> 10 µM"}
{"SMILES_STRUCTURE": "CN1CCN(c2cc(Br)cc3c2c(=O)n(Cc2ccccc2)c(=O)n3Cc2ccccc2)CC1", "IC50": "> 10 µM"}
{"SMILES_STRUCTURE": "C[C@H](c1ccccc1)n1c(=O)c2c(N3CCN(C)CC3)cc(Cl)cc2n(Cc2ccccc2)c1=O", "IC50": "> 10 µM"}
{"SMILES_STRUCTURE": "CN1CCN(c2cc(Cl)cc3c2c(=O)n(Cc2cccc([N+](=O)[O-])c2)c(=O)n3Cc2ccccc2)CC1", "IC50": "> 10 µM"}
